molecular target: Inosine-5'-monophosphate dehydrogenase 2 (Homo sapiens); assay: The compound was tested for the inhibition towards […] (Nicotinamide adenine dinucleotide) substrate of Inosine-5'-monophosphate dehydrogenase 2
pKi: −log10 of the molar value.
PROPERTY_MEASURED: pKi

Reference set, count: 2
[
  {
    "COMPOUND_STRING": "NC(=O)c1c[se]c([C@@H]2O[C@H](COP(=O)(O)OP(=O)(O)OC[C@H]3O[C@@H](n4cnc5c(N)ncnc54)[C@H](O)[C@@H]3O)[C@@H](O)[C@H]2O)c1",
    "MEASURED": 6.57
  },
  {
    "COMPOUND_STRING": "NC(=O)c1c[se]c([C@@H]2O[C@H](COP(=O)(O)OP(=O)(O)OC[C@H]3O[C@@H](n4cnc5c(N)ncnc54)[C@H](O)[C@@H]3O)[C@@H](O)[C@H]2O)n1",
    "MEASURED": 7.59
  }
]

A = NC(=O)c1coc([C@@H]2O[C@H](COP(=O)(O)OP(=O)(O)OC[C@H]3O[C@@H](n4cnc5c(N)ncnc54)[C@H](O)[C@@H]3O)[C@@H](O)[C@H]2O)c1
B = NC(=O)c1csc([C@@H]2O[C@H](COP(=O)(O)OP(=O)(O)OC[C@H]3O[C@@H](n4cnc5c(N)ncnc54)[C@H](O)[C@@H]3O)[C@@H](O)[C@H]2O)c1
### Prompt # returns the entry with the larger pKi; inputs A and B Kindly state the label of the option you pick.
### Response B
(B: 6.47, A: 4.00)

###

biological target: Inosine-5'-monophosphate dehydrogenase 2 (Homo sapiens); assay: The compound was tested for the inhibition towards IMP(Inosine 5'-monophosphate) substrate of Inosine-5'-monophosphate dehydrogenase 2
pKi: −log10 of the molar value.
PROPERTY_MEASURED: pKi

[
  {
    "COMPOUND_STRING": "NC(=O)c1c[se]c([C@@H]2O[C@H](COP(=O)(O)OP(=O)(O)OC[C@H]3O[C@@H](n4cnc5c(N)ncnc54)[C@H](O)[C@@H]3O)[C@@H](O)[C@H]2O)c1",
    "MEASURED": 5.96
  }
]

P = NC(=O)c1csc([C@@H]2O[C@H](COP(=O)(O)OP(=O)(O)OC[C@H]3O[C@@H](n4cnc5c(N)ncnc54)[C@H](O)[C@@H]3O)[C@@H](O)[C@H]2O)c1
Q = NC(=O)c1c[se]c([C@@H]2O[C@H](COP(=O)(O)OP(=O)(O)OC[C@H]3O[C@@H](n4cnc5c(N)ncnc54)[C@H](O)[C@@H]3O)[C@@H](O)[C@H]2O)n1
R = NC(=O)c1coc([C@@H]2O[C@H](COP(=O)(O)OP(=O)(O)OC[C@H]3O[C@@H](n4cnc5c(N)ncnc54)[C@H](O)[C@@H]3O)[C@@H](O)[C@H]2O)c1
### Prompt Output the entries ranked by pKi from maximum down to minimum. Form entry: labels listed in requested order.
### Response Q, P, R
(Q: 7.68, P: 6.49, R: 4.24)

###

target: Inosine-5'-monophosphate dehydrogenase 1 (Homo sapiens, UniProt P20839); assay: The compound was tested for the inhibition towards IMP(Inosine 5'-monophosphate) substrate of Inosine-5'-monophosphate dehydrogenase 1
Sequence (P20839 whole entry): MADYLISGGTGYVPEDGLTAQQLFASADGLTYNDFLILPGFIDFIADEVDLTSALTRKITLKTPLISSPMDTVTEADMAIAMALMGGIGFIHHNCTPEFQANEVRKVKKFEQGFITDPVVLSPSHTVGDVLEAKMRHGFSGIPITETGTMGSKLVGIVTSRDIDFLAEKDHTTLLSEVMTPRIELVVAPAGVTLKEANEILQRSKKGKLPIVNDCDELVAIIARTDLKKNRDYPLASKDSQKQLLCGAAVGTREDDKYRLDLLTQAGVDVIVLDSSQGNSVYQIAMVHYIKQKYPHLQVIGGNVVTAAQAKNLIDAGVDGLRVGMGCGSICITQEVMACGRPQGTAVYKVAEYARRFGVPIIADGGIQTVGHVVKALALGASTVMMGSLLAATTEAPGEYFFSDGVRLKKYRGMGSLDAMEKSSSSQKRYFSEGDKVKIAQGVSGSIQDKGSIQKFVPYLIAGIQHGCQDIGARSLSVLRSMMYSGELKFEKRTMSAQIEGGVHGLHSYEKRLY
pKi: −log10 of the molar value.
PROPERTY_MEASURED: pKi

[
  {
    "COMPOUND_STRING": "NC(=O)c1c[se]c([C@@H]2O[C@H](COP(=O)(O)OP(=O)(O)OC[C@H]3O[C@@H](n4cnc5c(N)ncnc54)[C@H](O)[C@@H]3O)[C@@H](O)[C@H]2O)c1",
    "ASSAYED_TARGET": "Inosine-5'-monophosphate dehydrogenase 1 (Homo sapiens, UniProt P20839)",
    "MEASURED": 6.24
  }
]

1 = NC(=O)c1coc([C@@H]2O[C@H](COP(=O)(O)OP(=O)(O)OC[C@H]3O[C@@H](n4cnc5c(N)ncnc54)[C@H](O)[C@@H]3O)[C@@H](O)[C@H]2O)c1
2 = NC(=O)c1csc([C@@H]2O[C@H](COP(=O)(O)OP(=O)(O)OC[C@H]3O[C@@H](n4cnc5c(N)ncnc54)[C@H](O)[C@@H]3O)[C@@H](O)[C@H]2O)c1
3 = NC(=O)c1c[se]c([C@@H]2O[C@H](COP(=O)(O)OP(=O)(O)OC[C@H]3O[C@@H](n4cnc5c(N)ncnc54)[C@H](O)[C@@H]3O)[C@@H](O)[C@H]2O)n1
### Prompt Put these in order: smallest pKi first, largest last. Put the labels in the order asked and list them.
### Response 1, 2, 3
